Test system: NCI-H929 complex spheroids, viability % test/control
Assay: Anticancer human tumor NCI-H929 cell line growth inhibition [RAS];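 also: compound exposure lasted seven days before viability was read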
Settings: curve of first compound; second compound 0.1 µM
As shown below, each of these compounds has a reported pIC50 value.
Please report pIC50 as the negative decimal logarithm of the molar concentration, giving only the number.

CCc1c2c(nc3ccc(O)cc13)-c1cc3c(c(=O)n1C2)COC(=O)[C@]3(O)CC + C=CC(=O)N1CCN(c2nc(OCC3CCCN3C)nc3c(F)c(-c4nc(N)cc(C)c4C(F)(F)F)c(Cl)cc23)C(C)C1 ... 8.70
CC(C)NCC(C(=O)N1CCN(c2ncnc3c2C(C)CC3O)CC1)c1ccc(Cl)cc1 (stereo not given) + C=CC(=O)N1CCN(c2nc(OCC3CCCN3C)nc3c(F)c(-c4nc(N)cc(C)c4C(F)(F)F)c(Cl)cc23)C(C)C1 ... 5.39
CCC(CC)c1cc(NC2CCC(N)C2)n2nccc2n1 (stereo not given) + C#Cc1c(F)ccc2cc(O)cc(-c3ncc4c(N5CC6CCC(C5)N6)nc(OCC56CCCN5CC(F)C6)nc4c3F)c12 ... 5.74

Which measured pIC50 value corresponds to CC(C)NCC(C(=O)N1CCN(c2ncnc3c2C(C)CC3O)CC1)c1ccc(Cl)cc1 (stereo not given) + C#Cc1c(F)ccc2cc(O)cc(-c3ncc4c(N5CC6CCC(C5)N6)nc(OCC56CCCN5CC(F)C6)nc4c3F)c12 ? 5.52

----------
System: NCI-H929 complex spheroids, viability % test/control
Assay: Anticancer human tumor NCI-H929 cell line growth inhibition [RAS];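 also: compound exposure lasted seven days before viability was read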;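 as to viability, T/C: 100% = DMSO vehicle control viability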
Conditions: second compound 0.003 µM; first compound 0.0949 µM; stronger effect = lower value
MEASURED METRIC: viability, T/C (%)
Reply numerically in %, unit not repeated.

CC1(C)CCC(Nc2ncc(C(F)(F)F)c(-c3c[nH]c4c(P(C)(C)=O)c(C#N)ccc34)n2)CN1 (centres undefined) + CCn1c(-c2cccnc2C(C)OC)c2c3cc(ccc31)N1CCOC(CC(NC(=O)C(C(C)C)N(C)C(=O)C3(F)CCN(C(=O)C#CC(C)(C)N(C)C)CC3)C(=O)N3CCCC(N3)C(=O)OCC(C)(C)C2)C1 ... 2.6
CC1(C)CCC(Nc2ncc(C(F)(F)F)c(-c3c[nH]c4c(P(C)(C)=O)c(C#N)ccc34)n2)CN1 (centres undefined) + CCn1c(-c2cc(N3CCN(C)CC3)cnc2C(C)OC)c2c3cc(ccc31)-c1csc(n1)CC(NC(=O)C1CC1C)C(=O)N1CCCC(N1)C(=O)OCC(C)(C)C2 ... 5.4
CCc1c2c(nc3ccc(O)cc13)-c1cc3c(c(=O)n1C2)COC(=O)[C@]3(O)CC + CCn1c(-c2cc(N3CCN(C)CC3)cnc2C(C)OC)c2c3cc(ccc31)-c1csc(n1)CC(NC(=O)C1CC1C)C(=O)N1CCCC(N1)C(=O)OCC(C)(C)C2 ... 1.58

Which measured viability, T/C value corresponds to CCc1c2c(nc3ccc(O)cc13)-c1cc3c(c(=O)n1C2)COC(=O)[C@]3(O)CC + CCn1c(-c2cccnc2C(C)OC)c2c3cc(ccc31)N1CCOC(CC(NC(=O)C(C(C)C)N(C)C(=O)C3(F)CCN(C(=O)C#CC(C)(C)N(C)C)CC3)C(=O)N3CCCC(N3)C(=O)OCC(C)(C)C2)C1 ? 1.07

----------
Test system: NCI-H929 complex spheroids, viability % test/control
Assay: Anticancer human tumor NCI-H929 cell line growth inhibition [RAS];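 also: compound exposure lasted seven days before viability was read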;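 as to viability, T/C: 100% = DMSO vehicle control viability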
Settings: second compound 0.00949 µM; first compound 0.000949 µM; stronger effect = lower value
From the text: RAS pathway inhibitors in Combinations in Complex Spheroids A high-throughput screen of multi-cell type tumor spheroids was designed to identify active combinations of RAS pathway inhibitors and targeted small molecules. Complex spheroids include a stromal component modeled by human endothelial cells (HUVEC) and fibroblasts modeled by human mesenchymal stem cells (MSCs). […] Compounds. […] If the clinical Cmax for an agent had not been determined, the highest concentration tested was 10 microM. […]
As shown below, each of these molecules has a reported viability, T/C value.

CCc1c2c(nc3ccc(O)cc13)-c1cc3c(c(=O)n1C2)COC(=O)[C@]3(O)CC + CCn1c(-c2cc(N3CCN(C)CC3)cnc2C(C)OC)c2c3cc(ccc31)-c1csc(n1)CC(NC(=O)C1CC1C)C(=O)N1CCCC(N1)C(=O)OCC(C)(C)C2 ... 114%
CCc1c2c(nc3ccc(O)cc13)-c1cc3c(c(=O)n1C2)COC(=O)[C@]3(O)CC + CCn1c(-c2cccnc2C(C)OC)c2c3cc(ccc31)N1CCOC(CC(NC(=O)C(C(C)C)N(C)C(=O)C3(F)CCN(C(=O)C#CC(C)(C)N(C)C)CC3)C(=O)N3CCCC(N3)C(=O)OCC(C)(C)C2)C1 ... 70.4%

Write down the reported viability, T/C of CC1(C)CCC(Nc2ncc(C(F)(F)F)c(-c3c[nH]c4c(P(C)(C)=O)c(C#N)ccc34)n2)CN1 (centres undefined) + CCn1c(-c2cccnc2C(C)OC)c2c3cc(ccc31)N1CCOC(CC(NC(=O)C(C(C)C)N(C)C(=O)C3(F)CCN(C(=O)C#CC(C)(C)N(C)C)CC3)C(=O)N3CCCC(N3)C(=O)OCC(C)(C)C2)C1 , test system: NCI-H929 complex spheroids, viability % test/control. 93.6%

Write down the reported viability, T/C of CC1(C)CCC(Nc2ncc(C(F)(F)F)c(-c3c[nH]c4c(P(C)(C)=O)c(C#N)ccc34)n2)CN1 (centres undefined) + CCn1c(-c2cc(N3CCN(C)CC3)cnc2C(C)OC)c2c3cc(ccc31)-c1csc(n1)CC(NC(=O)C1CC1C)C(=O)N1CCCC(N1)C(=O)OCC(C)(C)C2 , test system: NCI-H929 complex spheroids, viability % test/control. 91.8%

----------
As shown below, each of these molecules has a reported viability, T/C value.
Tested on: NCI-H929 complex spheroids, viability % test/control
Experiment: Anticancer human tumor NCI-H929 cell line growth inhibition [RAS];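 also: compound exposure lasted seven days before viability was read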;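 as to viability, T/C: 100% = DMSO vehicle control viability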
Settings: second compound 0.0949 µM; first compound 0.316 µM; stronger effect = lower value
Reply numerically in %, unit not repeated.

Recorded viability, T/C, per entry:
CC1(O)CCCC1n1c(=O)c(C(F)F)cc2cnc(NC3CCN(S(C)(=O)=O)CC3)nc21 (centres undefined) + CCn1c(-c2cccnc2C(C)OC)c2c3cc(ccc31)N1CCOC(CC(NC(=O)C(C(C)C)N(C)C(=O)C3(F)CCN(C(=O)C#CC(C)(C)N(C)C)CC3)C(=O)N3CCCC(N3)C(=O)OCC(C)(C)C2)C1 ... 1.16
CC(C)NCC(C(=O)N1CCN(c2ncnc3c2C(C)CC3O)CC1)c1ccc(Cl)cc1 (centres undefined) + CCn1c(-c2cc(N3CCN(C)CC3)cnc2C(C)OC)c2c3cc(ccc31)-c1csc(n1)CC(NC(=O)C1CC1C)C(=O)N1CCCC(N1)C(=O)OCC(C)(C)C2 ... 0.72
Nc1ccn(C2OC(CO)C(O)C2(F)F)c(=O)n1 (centres undefined) + CCn1c(-c2cccnc2C(C)OC)c2c3cc(ccc31)N1CCOC(CC(NC(=O)C(C(C)C)N(C)C(=O)C3(F)CCN(C(=O)C#CC(C)(C)N(C)C)CC3)C(=O)N3CCCC(N3)C(=O)OCC(C)(C)C2)C1 ... 0.76

Write down the reported viability, T/C of CCC(CC)c1cc(NC2CCC(N)C2)n2nccc2n1 (centres undefined) + CCn1c(-c2cccnc2C(C)OC)c2c3cc(ccc31)N1CCOC(CC(NC(=O)C(C(C)C)N(C)C(=O)C3(F)CCN(C(=O)C#CC(C)(C)N(C)C)CC3)C(=O)N3CCCC(N3)C(=O)OCC(C)(C)C2)C1 , test system: NCI-H929 complex spheroids, viability % test/control. 89.2

----------
Tested on: NCI-H929 complex spheroids, viability % test/control
Assay: Anticancer human tumor NCI-H929 cell line growth inhibition [RAS];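 also: compound exposure lasted seven days before viability was read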;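 as to viability, T/C: 100% = DMSO vehicle control viability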
Settings: second compound 0.00949 µM; first compound 0.03 µM; stronger effect = lower value
As shown below, each of these compounds has a reported viability, T/C value.
Reply numerically in %, unit not repeated.

CCc1c2c(nc3ccc(O)cc13)-c1cc3c(c(=O)n1C2)COC(=O)[C@]3(O)CC + CCn1c(-c2cc(N3CCN(C)CC3)cnc2C(C)OC)c2c3cc(ccc31)-c1csc(n1)CC(NC(=O)C1CC1C)C(=O)N1CCCC(N1)C(=O)OCC(C)(C)C2 ... 1.61
CC1(C)CCC(Nc2ncc(C(F)(F)F)c(-c3c[nH]c4c(P(C)(C)=O)c(C#N)ccc34)n2)CN1 (centres undefined) + CCn1c(-c2cccnc2C(C)OC)c2c3cc(ccc31)N1CCOC(CC(NC(=O)C(C(C)C)N(C)C(=O)C3(F)CCN(C(=O)C#CC(C)(C)N(C)C)CC3)C(=O)N3CCCC(N3)C(=O)OCC(C)(C)C2)C1 ... 2.85

Which measured viability, T/C value corresponds to CCc1c2c(nc3ccc(O)cc13)-c1cc3c(c(=O)n1C2)COC(=O)[C@]3(O)CC + CCn1c(-c2cccnc2C(C)OC)c2c3cc(ccc31)N1CCOC(CC(NC(=O)C(C(C)C)N(C)C(=O)C3(F)CCN(C(=O)C#CC(C)(C)N(C)C)CC3)C(=O)N3CCCC(N3)C(=O)OCC(C)(C)C2)C1 ? 1.06

Which measured viability, T/C value corresponds to CC1(C)CCC(Nc2ncc(C(F)(F)F)c(-c3c[nH]c4c(P(C)(C)=O)c(C#N)ccc34)n2)CN1 (centres undefined) + CCn1c(-c2cc(N3CCN(C)CC3)cnc2C(C)OC)c2c3cc(ccc31)-c1csc(n1)CC(NC(=O)C1CC1C)C(=O)N1CCCC(N1)C(=O)OCC(C)(C)C2 ? 5.44

The values you see were collected from PubChem BioAssay AID2060884.
